Hey, just so you know, these numbers are from PubChem BioAssay (Tox21).

system: Acetylcholinesterase (Homo sapiens) (UniProt P22303)
Sequence (P22303 whole entry, looked up): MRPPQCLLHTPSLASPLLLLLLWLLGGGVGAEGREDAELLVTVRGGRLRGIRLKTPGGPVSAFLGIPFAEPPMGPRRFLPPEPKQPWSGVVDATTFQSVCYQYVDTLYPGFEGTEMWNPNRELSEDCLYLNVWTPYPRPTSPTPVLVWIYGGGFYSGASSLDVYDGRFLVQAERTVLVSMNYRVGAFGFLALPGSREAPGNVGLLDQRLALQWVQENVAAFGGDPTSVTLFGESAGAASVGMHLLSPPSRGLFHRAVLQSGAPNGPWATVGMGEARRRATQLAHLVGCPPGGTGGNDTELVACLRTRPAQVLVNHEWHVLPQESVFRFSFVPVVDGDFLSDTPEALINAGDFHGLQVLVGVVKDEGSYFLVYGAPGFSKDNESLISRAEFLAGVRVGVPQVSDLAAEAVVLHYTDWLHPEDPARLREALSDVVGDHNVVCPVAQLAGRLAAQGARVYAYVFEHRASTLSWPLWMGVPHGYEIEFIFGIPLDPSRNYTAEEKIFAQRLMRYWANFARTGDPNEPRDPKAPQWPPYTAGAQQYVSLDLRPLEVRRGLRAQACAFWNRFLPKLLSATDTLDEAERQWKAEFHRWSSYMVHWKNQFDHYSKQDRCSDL
method: Acetylcholinesterase (AChE) small molecule antagonists: colormetric cell-based qHTS assay (AID 1347395); further: nearly all actives have a fitted effect of over 30% in size
experimental-conditions: SH-SY5Y cells AChE activity, colorimetric (Ellman); series mostly up to 115 µM
Excerpt: National Center for Advancing Translational Sciences [NCATS] Division of Preclinical Innovation [DPI] U.S. Environmental Protection Agency [EPA] National Institutes of Environmental Health Sciences [NIEHS] National Toxicology Program [NTP] U.S. Food and Drug Administration [FDA] Acetylcholinesterase (AChE) is the primary cholinesterase in the body that hydrolyzes a key neurotransmitter, acetylcholine. Inhibition of AChE activity can lead to neurotoxicity. […]
Results filed as inconclusive are left out. Activity calls are given as the source filed them. The call rests on the fitted dose curve.
Pick one and only one: active, inactive

Reference set, count: 10
CSc1ccc(C(=O)c2[nH]c(=O)[nH]c2C)cc1 | inactive
CCOCN(C(=O)CS(=O)(=O)O)c1c(C)cccc1CC | inactive
CN1C(=O)c2ccc([N+](=O)[O-])cc2C1=O | inactive
COc1ccc2nc(NC(=O)Nc3ccccc3)sc2c1 | inactive
COc1ccc(-c2ccc3cc(C(=O)O)ccc3c2)cc1C12CC3CC(CC(C3)C1)C2 | inactive
Cc1ccc(C(=O)C(=O)O)cc1C | inactive
O=C(NN1CCCC1)NS(=O)(=O)c1ccc(Cl)cc1 | inactive
C1COC1 | inactive
FC(F)(F)C(F)(F)C(F)(F)C(F)(F)C(F)(F)C(F)(F)C(F)(F)C(F)(F)Br | inactive
C=COCCOCCOCCOC=C | inactive

**Q:** Recorded test outcome, item CCOC(=O)N1CCC(Nc2ccc(Cl)cc2N)CC1
**A:** inactive

**Q:** Recorded test outcome, item CC/C=C\CCOC(=O)C(C)C
**A:** inactive

**Q:** Recorded test outcome, item CCOC(=O)c1cnc2c(cnn2CC)c1NN=C(C)C
**A:** inactive

**Q:** Recorded test outcome, item Cc1nc(C)c(C)nc1C
**A:** inactive

**Q:** Recorded test outcome, item BrCCCCCBr
**A:** inactive

**Q:** Recorded test outcome, item O=C(Nc1cccc2c(=O)cc(-c3nn[nH]n3)oc12)c1ccc(OCCCCc2ccccc2)cc1
**A:** inactive

**Q:** Recorded test outcome, item CC(=O)OCCC(C)CC(C)(C)C (stereo not drawn)
**A:** inactive

**Q:** Recorded test outcome, item CC(C)c1ccccc1
**A:** inactive

**Q:** Recorded test outcome, item O=C(CS(=O)Cc1ccco1)NC/C=C\COc1cc(CN2CCCCC2)ccn1 (stereo not drawn)
**A:** active

**Q:** Recorded test outcome, item CC(=O)CC(c1ccc([N+](=O)[O-])cc1)c1c(O)c2ccccc2oc1=O (stereo not drawn)
**A:** inactive

**Q:** Recorded test outcome, item COCc1nnc(-c2ccc[n+]([O-])c2)n1-c1c(Cl)c(Cl)cc2[nH]c(=O)c(=O)[nH]c12
**A:** inactive

**Q:** Recorded test outcome, item CC(=C(CCOC(=O)C(C)C)SSC(CCOC(=O)C(C)C)=C(C)N(C=O)Cc1cnc(C)nc1N)N(C=O)Cc1cnc(C)nc1N
**A:** inactive

**Q:** Recorded test outcome, item CCCCCCCCCCCCCCCC/C=C/C1CC(=O)OC1=O (stereo not drawn)
**A:** inactive

**Q:** Recorded test outcome, item O=C(N/N=C/c1ccccc1O)c1ccncc1
**A:** inactive

**Q:** Recorded test outcome, item Cc1ccc(O)c([N+](=O)[O-])c1
**A:** inactive

**Q:** Recorded test outcome, item CCCCCCCCN(C)CCCCCCCC
**A:** inactive

**Q:** Recorded test outcome, item CCOC(=O)CS
**A:** inactive

**Q:** Recorded test outcome, item COc1cc(S(=O)(=O)O)c(C)cc1N=Nc1c(O)ccc2cc(S(=O)(=O)O)ccc12
**A:** inactive
